# Test system: Escherichia coli ATCC 25922
# procedureText: MIC, broth microdilution (CLSI), reference strain
# experimentalParameters: CAMHB
Numbered stars: 1 amine (or outer) side, 2 acyl side, 3 side chain; on linkers, the order of the positions; unused ones are H or OH. Square brackets hold non-standard residues; d marks the D form. Peptide text beside a SMILES is read from it. * marks the point of attachment. Abu(4,4,4-F3) = N[C@@H](CC(F)(F)F)C(=O)O; X6 = NC[C@@H](O)[C@@H](N[*:1])C(=O)[*:2]; Phe(3-Me) = Cc1cccc(C[C@H](N)C(=O)O)c1; Dab(3S-OH) = NC[C@H](O)[C@H](N)C(=O)O; X4 = N=C(N)NCC/C=C(/N[*:1])C(=O)[*:2]; ΔZArg = N=C(N)NCC/C=C(\N)C(=O)O; Lys(Me) = CNCCCC[C@H](N)C(=O)O; aThr = C[C@H](O)[C@H](N)C(=O)O; X2 = CC=C(N[*:1])C(=O)[*:2]; hLys = NCCCCC[C@H](N)C(=O)O; dOrn = NCCC[C@@H](N)C(=O)O; Pra = C#CC[C@H](N)C(=O)O; Dab = NCC[C@H](N)C(=O)O; NH(CH2)4NH2 = NCCCCN*
assayReadout: Ec: MIC Escherichia coli ATCC 25922

Use the examples below as a reference point.
Ask: Field request: Ec: MIC Escherichia coli ATCC 25922 | item: C[C@H](N)C(=O)N[C@H](C(=O)N[C@H](C(=O)NCC(=O)N[C@H](CCCN)C(=O)N1CCC[C@H]1C(=O)N[C@@H](Cc1cnc[nH]1)C(=O)N[C@@H](CCCCN)C(=O)N/C(=C\CCNC(=N)N)C(=O)N[C@@H](CCCCN)C(=O)NCCCCN)[C@@H](O)CN)[C@@H](O)CN [22.16] (H-A[Dab(3S-OH)][Dab(3S-OH)]G[dOrn]PHK[ΔZArg]K-{NH(CH2)4NH2})
Reply: + (≤32 μg/mL)

Ask: # iterate: COC[C@H](NC(=O)[C@@H]1CCCN1C(=O)[C@@H](CCCN)NC(=O)CNC(=O)[C@H](C)NC(=O)[C@@H](NC(=O)[C@@H](N)CCCCN)[C@@H](O)CN)C(=O)N[C@@H](CCCCN)C(=O)N/C(=C\CCNC(=N)N)C(=O)O [24.136] (H-K[Dab(3S-OH)]AG[dOrn]PS(Me)K[ΔZArg]-OH)
Reply: − (>32 μg/mL)

Ask: Another molecule: C[C@H](NC(=O)[C@H](CCN)NC(=O)[C@@H](N)CCCCN)C(=O)NCC(=O)N[C@H](CCCN)C(=O)N1CCC[C@H]1C(=O)N[C@@H](Cc1cnc[nH]1)C(=O)N[C@@H](CCCCN)C(=O)N/C(=C\CCNC(=N)N)C(=O)N[C@@H](CCCCN)C(=O)NCCCCN [14.2] (H-K[Dab]AG[dOrn]PHK[ΔZArg]K-{NH(CH2)4NH2})
Reply: + (≤32 μg/mL)

Ask: // query: Cc1cccc(C[C@H](NC(=O)[C@@H]2CCCN2C(=O)[C@@H](CCCN)NC(=O)CNC(=O)[C@@H](NC(=O)[C@@H](NC(=O)[C@@H](N)CCCCN)[C@@H](O)CN)[C@@H](O)CN)C(=O)N[C@@H](CCCCN)C(=O)N/C(=C\CCNC(=N)N)C(=O)O)c1 [22.37] (H-K[Dab(3S-OH)][Dab(3S-OH)]G[dOrn]P[Phe(3-Me)]K[ΔZArg]-OH)
Reply: + (≤32 μg/mL)

Ask: Then what about the molecule CC=C(NC(=O)[C@H](CCCCN)NC(=O)[C@H](Cc1cnc[nH]1)NC(=O)[C@@H]1CCCN1C(=O)[C@@H](CCCN)NC(=O)CNC(=O)[C@@H](NC(=O)[C@@H](NC(=O)[C@@H](N)CCCCN)[C@@H](O)CN)[C@@H](O)CN)C(=O)N[C@@H](CCCCN)C(=O)NCCCCN [22.15] (H-K[Dab(3S-OH)][Dab(3S-OH)]G[dOrn]PHK[X2]K-{NH(CH2)4NH2}) ?
Reply: + (≤32 μg/mL)

I would be grateful if you could provide Ec: MIC Escherichia coli ATCC 25922 for each of the following entries.
1. N=C(N)NCC/C=C(\NC(=O)[C@H](CCCCN)NC(=O)[C@H](Cc1cnc[nH]1)NC(=O)[C@@H]1CCCN1C(=O)[C@@H](CCCN)NC(=O)CNC(=O)[C@H](NC(=O)[C@@H](NC(=O)[C@@H](N)CCCCN)[C@@H](O)CN)[C@H](O)CN)C(=O)N[C@@H](CCCCN)C(=O)NCCCCN [22.32] (H-K[Dab(3S-OH)][X6]G[dOrn]PHK[ΔZArg]K-{NH(CH2)4NH2})
2. CNCCCC[C@H](N)C(=O)N[C@H](C(=O)N[C@@H](C)C(=O)NCC(=O)N[C@H](CCCN)C(=O)N1CCC[C@H]1C(=O)N[C@@H](Cc1cnc[nH]1)C(=O)N[C@@H](CCCCN)C(=O)N/C(=C\CCNC(=N)N)C(N)=O)[C@@H](O)CN [24.64] (H-[Lys(Me)][Dab(3S-OH)]AG[dOrn]PHK[ΔZArg]-NH2)

Reply:
1: − (>32 μg/mL); 2: ++ (≤8 μg/mL)

I would be grateful if you could provide Ec: MIC Escherichia coli ATCC 25922 for each of the following entries.
1. C[C@H](NC(=O)[C@@H](NC(=O)[C@@H](N)CCCCN)[C@@H](O)CN)C(=O)NCC(=O)N[C@H](CCCN)C(=O)N1CCC[C@H]1C(=O)N[C@@H](CC(F)(F)F)C(=O)N[C@@H](CCCCN)C(=O)N/C(=C\CCNC(=N)N)C(=O)O [24.109] (H-K[Dab(3S-OH)]AG[dOrn]P[Abu(4,4,4-F3)]K[ΔZArg]-OH)
2. C[C@H](NC(=O)[C@@H](NC(=O)[C@@H](N)CCCCCN)[C@@H](O)CN)C(=O)NCC(=O)N[C@H](CCCN)C(=O)N1CCC[C@H]1C(=O)N[C@@H](Cc1cnc[nH]1)C(=O)N[C@@H](CCCCN)C(=O)N/C(=C\CCNC(=N)N)C(N)=O [24.69] (H-[hLys][Dab(3S-OH)]AG[dOrn]PHK[ΔZArg]-NH2)
3. N=C(N)NCC/C=C(/NC(=O)[C@H](CCCCN)NC(=O)[C@H](Cc1cnc[nH]1)NC(=O)[C@@H]1CCCN1C(=O)[C@@H](CCCN)NC(=O)CNC(=O)[C@@H](NC(=O)[C@@H](NC(=O)[C@@H](N)CCCCN)[C@@H](O)CN)[C@@H](O)CN)C(=O)N[C@@H](CCCCN)C(=O)NCCCCN [22.7] (H-K[Dab(3S-OH)][Dab(3S-OH)]G[dOrn]PHK[X4]K-{NH(CH2)4NH2})
4. C[C@H](NC(=O)[C@@H](NC(=O)[C@@H](N)CCCCN)[C@@H](O)CN)C(=O)NCC(=O)N[C@H](CCCN)C(=O)N1CCC[C@H]1C(=O)N[C@H](C(=O)N[C@@H](CCCCN)C(=O)N/C(=C\CCNC(=N)N)C(=O)O)[C@H](C)O [24.110] (H-K[Dab(3S-OH)]AG[dOrn]P[aThr]K[ΔZArg]-OH)
5. N=C(N)NCC/C=C(\NC(=O)[C@H](CCCCN)NC(=O)[C@H](Cc1cnc[nH]1)NC(=O)[C@@H]1CCCN1C(=O)[C@@H](CCCN)NC(=O)CNC(=O)[C@@H](NC(=O)[C@H](CCN)NC(=O)[C@@H](N)CCCCN)[C@@H](O)CN)C(=O)N[C@@H](CCCCN)C(=O)NCCCCN [12.1] (H-K[Dab][Dab(3S-OH)]G[dOrn]PHK[ΔZArg]K-{NH(CH2)4NH2})
6. C#CC[C@H](NC(=O)[C@@H](NC(=O)[C@@H](N)CCCCN)[C@@H](O)CN)C(=O)NCC(=O)N[C@H](CCCN)C(=O)N1CCC[C@H]1C(=O)N[C@@H](Cc1cnc[nH]1)C(=O)N[C@@H](CCCCN)C(=O)N/C(=C\CCNC(=N)N)C(=O)O [223.1] (H-K[Dab(3S-OH)][Pra]G[dOrn]PHK[ΔZArg]-OH)

Reply:
1: ++ (≤8 μg/mL); 2: + (≤32 μg/mL); 3: ++ (≤8 μg/mL); 4: − (>32 μg/mL); 5: − (>32 μg/mL); 6: + (≤32 μg/mL)

* * *

# Test system: Escherichia coli ATCC 25922
# procedureText: MIC, broth microdilution (CLSI), reference strain
# experimentalParameters: CAMHB
Square brackets hold non-standard residues; d marks the D form. Peptide text beside a SMILES is read from it. * marks the point of attachment. ξ: configuration not given here. Phe(4-CONH2) = NC(=O)c1ccc(C[C@H](N)C(=O)O)cc1; Phe(3,4-F2) = N[C@@H](Cc1ccc(F)c(F)c1)C(=O)O; Oic(3aξ,7aξ) = O=C(O)[C@@H]1CC2CCCCC2N1; Phe(3-F) = N[C@@H](Cc1cccc(F)c1)C(=O)O; Dab(3S-OH) = NC[C@H](O)[C@H](N)C(=O)O; Phe(2-F) = N[C@@H](Cc1ccccc1F)C(=O)O; ΔZArg = N=C(N)NCC/C=C(\N)C(=O)O; dOrn = NCCC[C@@H](N)C(=O)O; Orn = NCCC[C@H](N)C(=O)O; Dab = NCC[C@H](N)C(=O)O; NH(CH2)5NH2 = NCCCCCN*
assayReadout: Ec: MIC Escherichia coli ATCC 25922

Below, each entry is followed by its recorded Ec: MIC Escherichia coli ATCC 25922 result.
Ask: Item N=C(N)NCC/C=C(\NC(=O)[C@H](CCCCN)NC(=O)[C@H](Cc1cnc[nH]1)NC(=O)[C@@H]1CCCN1C(=O)[C@@H](CCCN)NC(=O)CNC(=O)[C@@H](NC(=O)[C@@H](NC(=O)[C@@H](N)CCCCN)[C@@H](O)CN)[C@@H](O)CN)C(=O)NCCCCCN [22.2] (H-K[Dab(3S-OH)][Dab(3S-OH)]G[dOrn]PHK[ΔZArg]-{NH(CH2)5NH2}) with Escherichia coli ATCC 25922 - Ec: MIC Escherichia coli ATCC 25922?
Reply: ++ (≤8 μg/mL)

Ask: Quick one: N=C(N)NCC/C=C(\NC(=O)[C@H](CCCCN)NC(=O)[C@H](Cc1cccc(F)c1)NC(=O)[C@@H]1CCCN1C(=O)[C@@H](CCCN)NC(=O)CNC(=O)[C@H](CCCN)NC(=O)[C@@H](NC(=O)[C@@H](N)CCCCN)[C@@H](O)CN)C(=O)O [211.4] (H-K[Dab(3S-OH)][Orn]G[dOrn]P[Phe(3-F)]K[ΔZArg]-OH)
Reply: ++ (≤8 μg/mL)

Ask: Follow-up item: N=C(N)NCC/C=C(\NC(=O)[C@H](CCCCN)NC(=O)[C@H](Cc1ccccc1F)NC(=O)[C@@H]1CCCN1C(=O)[C@@H](CCCN)NC(=O)CNC(=O)[C@H](CCN)NC(=O)[C@@H](NC(=O)[C@@H](N)CCCCN)[C@@H](O)CN)C(=O)O [21.4] (H-K[Dab(3S-OH)][Dab]G[dOrn]P[Phe(2-F)]K[ΔZArg]-OH)
Reply: ++ (≤8 μg/mL)

Ask: Please give the result for C[C@H](NC(=O)[C@@H](NC(=O)[C@@H](N)CCCCN)[C@@H](O)CN)C(=O)NCC(=O)N[C@H](CCCN)C(=O)N1C2CCCCC2C[C@H]1C(=O)N[C@@H](Cc1cnc[nH]1)C(=O)N[C@@H](CCCCN)C(=O)N/C(=C\CCNC(=N)N)C(=O)O (stereo partly drawn) [24.75] (H-K[Dab(3S-OH)]AG[dOrn][Oic(3aξ,7aξ)]HK[ΔZArg]-OH) too.
Reply: + (≤32 μg/mL)

Provide each entry's Ec: MIC Escherichia coli ATCC 25922 from the list below.
1. C[C@H](NC(=O)[C@@H](NC(=O)[C@@H](N)CCCCN)[C@@H](O)CN)C(=O)NCC(=O)N[C@H](CCCN)C(=O)N1CCC[C@H]1C(=O)N[C@@H](Cc1ccc(C(N)=O)cc1)C(=O)N[C@@H](CCCCN)C(=O)N/C(=C\CCNC(=N)N)C(=O)O [24.101] (H-K[Dab(3S-OH)]AG[dOrn]P[Phe(4-CONH2)]K[ΔZArg]-OH)
2. C[C@H](NC(=O)[C@@H](NC(=O)[C@@H](N)CCCCN)[C@@H](O)CN)C(=O)NCC(=O)N[C@H](CCCN)C(=O)N1CCC[C@H]1C(=O)N[C@@H](Cc1ccc(F)c(F)c1)C(=O)N[C@@H](CCCCN)C(=O)N/C(=C\CCNC(=N)N)C(=O)O [24.84] (H-K[Dab(3S-OH)]AG[dOrn]P[Phe(3,4-F2)]K[ΔZArg]-OH)

Reply:
["+ (≤32 μg/mL)", "++ (≤8 μg/mL)"]
